Ref: a melting point compilation (Tetko et al.)

# key: entry, value: melting point
readout-label: melting point

>  <compound>
Nc1c(Cl)nc(-c2ccccc2)nc1Cl

>  <readout-label>
melting point

>  <readout-value>
140 to 142 °C

$$$$
>  <compound>
Cc1cc2oc(=O)cc(CCl)c2cc1C

>  <readout-label>
melting point

>  <readout-value>
188 to 190 °C

$$$$
>  <compound>
Cc1cc(NC(=O)CCl)n(-c2ccc(F)cc2)n1

>  <readout-label>
melting point

>  <readout-value>
128 to 130 °C

$$$$
>  <compound>
CC(C)(C)c1cc(C(=O)O)[nH]n1

>  <readout-label>
melting point

>  <readout-value>
195 to 197 °C

$$$$
>  <compound>
Cn1c(C(=O)O)cc2cc(C(F)(F)F)ccc21

>  <readout-label>
melting point

>  <readout-value>
199 to 201 °C

$$$$
>  <compound>
NC(=S)N1CCSCC1

>  <readout-label>
melting point

>  <readout-value>
157 to 159 °C

$$$$
>  <compound>
O=C1CC2(CCCC2)C(=O)N1

>  <readout-label>
melting point

>  <readout-value>
105 to 107 °C

$$$$
>  <compound>
Cc1cc(C)c(C=O)cc1C

>  <readout-label>
melting point

>  <readout-value>
41 to 46 °C

$$$$
>  <compound>
O=S(=O)(Cl)c1cc2c(cc1Br)OCCO2

>  <readout-label>
melting point

>  <readout-value>
173 to 175 °C

$$$$
>  <compound>
Nc1ccc(Cl)cc1C(O)c1ccccc1 (centres undefined)

>  <readout-label>
melting point

>  <readout-value>
105 to 107 °C

$$$$
>  <compound>
COc1ncc(C(=O)O)cn1

>  <readout-label>
melting point

>  <readout-value>
219 to 221 °C

$$$$
>  <compound>
COc1ccc(S(=O)(=O)Cl)c2ccccc12

>  <readout-label>
melting point

>  <readout-value>
95 to 97 °C

$$$$
>  <compound>
CCn1cnnc1-c1cccc(N)c1

>  <readout-label>
melting point

>  <readout-value>
179 to 181 °C

$$$$
>  <compound>
CC(N)=C(C#N)C(=O)O

>  <readout-label>
melting point

>  <readout-value>
319 to 321 °C

$$$$
